CLint scaled at 2 μM listing for selected compounds.
Assay: Liver microsomes stability, rat
Format: in vitro ADME
Conditions: male; rat liver microsomes; read-out: Scaled-up CLint
reported_property: CLint scaled at 2 μM (mL/min/kg)

compound	units_symbol	reading_qualifier	measured_number
[2H]C([2H])(c1c[nH]c2ccc(OCCCCN3C(=O)c4ccccc4C3=O)cc12)[C@H]1CCCN1C([2H])([2H])[2H] [(R) I-244]	mL/min/kg	=	360
[2H]C([2H])(c1c[nH]c2ccc(OCCCCCN3C(=O)c4ccccc4C3=O)cc12)[C@H]1CCCN1C([2H])([2H])[2H] [(R) I-245]	mL/min/kg	>	550
COCCN1CCC[C@@H]1Cc1c[nH]c2ccc(OC)cc12 [(R) I-98]	mL/min/kg	=	248
[2H]C([2H])(c1c[nH]c2ccc(OCCCCCN3C(=O)C4CCCCC4C3=O)cc12)[C@H]1CCCN1C([2H])([2H])[2H] (mixture of isomers) [Rac (R) I-248]	mL/min/kg	>	550
